Test: Quantitative High-Throughput drug screen in 47 multiple myeloma cell lines against the NCATS MIPE library collection: KMM1_JCRB cell viability assay (AID 1918960); note: nearly all actives have a fitted effect of over 30% in size
Conditions: KMM1 myeloma viability, CellTiter-Glo ATP luminescence, 48 h; series mostly up to 45.8 µM
From the text: PI: Beverly A. Mock Ph.D. Laboratory of Cancer Biology and Genetics, Center for Cancer Research, National Cancer Institute, National Institute of Health, Bethesda, Maryland […] 5; Detector; 425V; Luminescence; Viewlux PerkinElmer. […] 1. […] Briefly, the corresponding myeloma cell lines were screened in 1,536-well plates with 500 cells, 5-uL per well for inhibition of cell viability (assessed by measuring ATP levels with CellTiterGlo). […]
Inconclusive results are not listed. Activity calls are given as the source filed them. Calls come from the whole dose curve; as a rule, active = well fitted cell-killing curve with a large enough effect; inconclusive = small, poorly fitted or top-dose-only effect, or effect the other way; inactive = no such curve, though single readings can be large or run the other way.
Outcomes: y for active, n for inactive

| COMPOUND | CATEGORY_LABEL |
| --- | --- |
| N[C@H]1CN(c2c(F)cc3c(=O)c(C(=O)O)cn(C4C[C@@H]4F)c3c2Cl)CC12CC2 (stereo not given in full) | n |
| COc1cccc2c1C(=O)c1c(O)c3c(c(O)c1C2=O)C[C@@](O)(C(=O)CO)C[C@H]3O[C@H]1C[C@H](N)[C@H](O)[C@H](C)O1 | y |
| O=C1NC(=O)C(=Cc2ccc3nccc(-c4ccncc4)c3c2)S1 | y |
| COC(=O)[C@H](CCCN=C(N)N)NS(=O)(=O)c1ccc(C)cc1 | n |
| CC(=O)N1CCN(c2ccc(OCc3nn(C)c(C)c3-c3cccc4c(CCCOc5cccc6ccccc56)c(C(=O)O)n(Cc5cccnc5)c34)cc2)CC1 | y |

###

Assay: qHTS of pediatric cancer cell lines to identify multiple opportunities for drug repurposing: Primary screen for SK-N-MC cells (AID 1347093)
Settings: SK-N-MC viability, CellTiter-Glo luminescence, 48 h; series mostly up to 46 µM
Records with an inconclusive call do not appear. Calls of active or inactive are those of the source. Calls follow the shape of the dose curve; as a rule, active = well fitted cell-killing curve with a large enough effect; inconclusive = small, poorly fitted or top-dose-only effect; inactive = no such curve, though single readings can be large or run the other way.
Outcomes: T = active, F = inactive

| COMPOUND | CATEGORY_LABEL |
| --- | --- |
| NC(=NCCCCCCN=C(N)N=C(N)Nc1ccc(Cl)cc1)N=C(N)Nc1ccc(Cl)cc1 | T |
| O=C(O)C(=O)Nc1cccc(C2=NN=N[N]2)c1 | F |
| Cn1cc(C=CC(=O)c2cccc(F)c2)cc1C=CC(=O)NO | T |
| C=C1C(=O)O[C@H]2[C@@H]1CCC(C)=CCC[C@@]1(C)O[C@@H]21 | T |
| COc1ccc2cc([S+]([O-])Cc3ncc(C)c(OC)c3C)nc2c1 | F |
| CC(C)(O)Cn1c(NC(=O)c2ccc(-c3cn[nH]c3)s2)nc2cc(CN3CCOCC3)ccc21 | T |
| OC[C@H]1OC(O)C[C@@H](O)[C@H]1O (stereo not given in full) | F |
| Cn1c(Nc2ccc(C(F)(F)F)cc2)nc2cc(Oc3ccnc(-c4ncc(C(F)(F)F)[nH]4)c3)ccc21 | T |
| C[C@@]12C(=O)OC(=O)[C@@]1(C)C1CCC2O1 | T |
| C[C@H](NCc1ccc2c(c1)nc(NC(=O)c1ccc(-c3cn[nH]c3)s1)n2CCc1ccccc1)C(C)(C)C | T |

###

Assay: Quantitative High-Throughput drug screen in 47 multiple myeloma cell lines against the NCATS MIPE library collection: XG6_PLB cell viability assay (AID 1919865); note: nearly all actives have a fitted effect of over 40% in size
Details: XG6 myeloma viability, CellTiter-Glo ATP luminescence, 48 h; series mostly up to 45.8 µM
Records with an inconclusive call do not appear. Calls of active or inactive are those of the source. Calls come from the whole dose curve; as a rule, active = well fitted cell-killing curve with a large enough effect; inconclusive = small, poorly fitted or top-dose-only effect, or effect the other way; inactive = no such curve, though single readings can be large or run the other way.
Outcomes: class 1 for active, class 0 for inactive

| COMPOUND | CATEGORY_LABEL |
| --- | --- |
| CC1=C(C(=O)Nc2cc3cn[nH]c3cc2F)C(c2ccc(Cl)cc2F)N=C(c2ccnc(Cl)c2)N1 (stereo not given) | class 1 |
| Nc1nc2c(c(=O)[nH]1)N(C=O)[C@H](CNc1ccc(C(=O)N[C@@H](CCC(=O)O)C(=O)O)cc1)CN2 | class 0 |
| CN1CCc2c(c3ccccc3n2Cc2ccc(C(=O)NO)cc2)C1 | class 1 |
| O=C(C=CC#Cc1cccc(NS(=O)(=O)c2ccccc2)c1)NO | class 1 |
| C=CC(=O)Nc1cc(NC(=O)c2ccc(C)c(NC(=O)c3ccno3)c2)cc(C(F)(F)F)c1 | class 1 |
| CC(Cc1ccc(O)c(O)c1)(NN)C(=O)O (stereo not given) | class 0 |
| CN(C)c1ccc(C(=O)NCCCCCCC(=O)NO)cc1 | class 1 |
| C=C1C(=CC=C2CCC[C@]3(C)[C@@H]([C@H](C)CCCC(C)(C)O)CC[C@@H]23)C[C@@H](O)C[C@@H]1O | class 1 |
| COc1ccc(C(C)=O)c(O)c1 | class 1 |
| COc1ccc(C=Cc2cc(OC)c(OC)c(OC)c2)cc1NC(=O)[C@H](N)CO | class 0 |

Each recorded value in this set is attributed to PubChem BioAssay (NCATS).
